Values from patent US11524966B1

- study-system: USP28 (His-tagged USP28-FL-mammalian) (Homo sapiens, UniProt Q96RU2)
- Construct: Expression of USP28 (1-1077)-TEV-6*His (pTT5 vector); made in house; host or cells: Expi293f cells (pTT5 vector)
- Sequence (Q96RU2 whole entry): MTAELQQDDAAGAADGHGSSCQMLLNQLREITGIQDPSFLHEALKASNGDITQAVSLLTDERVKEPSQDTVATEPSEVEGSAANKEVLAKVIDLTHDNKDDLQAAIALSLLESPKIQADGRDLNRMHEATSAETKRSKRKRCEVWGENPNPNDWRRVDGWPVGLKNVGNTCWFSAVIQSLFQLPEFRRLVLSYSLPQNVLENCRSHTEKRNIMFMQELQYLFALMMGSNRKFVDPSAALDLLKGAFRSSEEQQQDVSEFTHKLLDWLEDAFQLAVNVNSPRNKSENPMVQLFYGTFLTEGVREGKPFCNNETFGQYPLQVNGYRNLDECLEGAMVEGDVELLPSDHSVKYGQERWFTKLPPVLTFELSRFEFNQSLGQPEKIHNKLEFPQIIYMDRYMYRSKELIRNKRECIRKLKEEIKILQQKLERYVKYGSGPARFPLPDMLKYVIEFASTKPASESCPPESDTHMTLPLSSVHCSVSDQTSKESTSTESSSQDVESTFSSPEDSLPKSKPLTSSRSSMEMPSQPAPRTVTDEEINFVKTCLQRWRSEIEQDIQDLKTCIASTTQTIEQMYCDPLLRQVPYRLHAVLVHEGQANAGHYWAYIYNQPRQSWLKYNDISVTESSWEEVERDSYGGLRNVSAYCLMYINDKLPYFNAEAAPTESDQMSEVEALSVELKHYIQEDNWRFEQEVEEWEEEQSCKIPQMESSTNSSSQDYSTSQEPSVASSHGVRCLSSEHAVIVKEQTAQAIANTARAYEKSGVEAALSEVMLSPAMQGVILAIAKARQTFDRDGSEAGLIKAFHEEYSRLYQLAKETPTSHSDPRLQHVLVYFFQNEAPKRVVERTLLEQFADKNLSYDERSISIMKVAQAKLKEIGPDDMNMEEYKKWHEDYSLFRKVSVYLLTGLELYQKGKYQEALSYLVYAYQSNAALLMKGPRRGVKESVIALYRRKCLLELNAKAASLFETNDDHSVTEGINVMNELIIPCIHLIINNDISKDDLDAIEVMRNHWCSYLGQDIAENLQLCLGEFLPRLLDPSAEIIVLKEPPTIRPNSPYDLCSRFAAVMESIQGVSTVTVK
- procedure-details: Ubiquitin-Rhodamine 110 Assay for USP28 Activity, Example A-1(a)
- Format: biochemical
- run-parameters: Ubiquitin-Rhodamine 110 assay, Example A-1(a); read-out: USP28 A-1(a) IC50 range
IC50 by entry:

compound	IC50
Cc1cnc2c(N)c(C(=O)N[C@H]3CCc4cc(N5CC6COCC(C5)N6)ccc4C3)sc2n1 [Example 456]	0.05 to 0.2 µM
COC[C@@H]1CN(c2ccc3c(c2)OC[C@H](NC(=O)c2sc4nc(C)ccc4c2N)C3)CCN1 [Example 158]	0.05 to 0.2 µM
Cc1ccc2c(N)c(C(=O)N[C@H]3COc4cc(N5CCNCC5)cc(Cl)c4C3)sc2n1 [Example 48]	0.001 to 0.05 µM
CO[C@H]1CN(c2cc(F)c3c(c2)OC[C@H](NC(=O)c2sc4nc(C)ccc4c2N)C3)C[C@H]1N [Example 146]	0.001 to 0.05 µM
Cc1ccc2c(N)c(C(=O)N[C@H]3CCc4nc(N5CCNCC5)c(F)cc4C3)sc2n1 (single isomer, unassigned) [Example 30-1]	0.001 to 0.05 µM
Cc1ccc2c(N)c(C(=O)N[C@H]3COc4cc(N5CC[C@@H](C(=O)O)C5)ccc4C3)sc2n1 [Example 6-2]	0.05 to 0.2 µM
COC[C@H]1[C@H](N)CCN1c1ccc2c(n1)CC[C@H](NC(=O)c1sc3nc(C)ccc3c1N)C2 [Example 419]	0.05 to 0.2 µM
